Attribution: ChEMBL document CHEMBL3885861

We begin with a simple list: items and their reported Na.
- Species: Rattus norvegicus
- PROTOCOL SUMMARY: Open TG-GATES - Regimen: Daily Repeat
- Assay type: toxicity, organism-based, Sprague-Dawley
- Design: regimen Daily Repeat, gender Male, age 6 weeks
- CONDITION CONTEXT: in vivo, po, 0 mg/kg, 72 h, tissue Plasma, route gavage, dose level Control, time 3 day

COMPOUND: O=NN(CCCl)C(=O)NC1CCCCC1
Na (meq/L): 140

COMPOUND: CN(C)C(=N)N=C(N)N
Na (meq/L): 140.8

COMPOUND: ClC(Cl)(Cl)Cl [CARBON TETRACHLORIDE]
Na (meq/L): 140

COMPOUND: CCCCc1oc2ccccc2c1C(=O)c1cc(I)c(OCCN(CC)CC)c(I)c1
Na (meq/L): 140.6

COMPOUND: CN(C)CCC=C1c2ccccc2COc2ccccc21 [DOXEPIN]
Na (meq/L): 140.8

COMPOUND: CC(C)N(CCC(C(N)=O)(c1ccccc1)c1ccccn1)C(C)C (stereo unspecified) [DISOPYRAMIDE]
Na (meq/L): 143

COMPOUND: CC1=C(CC(=O)O)c2cc(F)ccc2/C1=C\c1ccc([S+](C)[O-])cc1 (stereo unspecified)
Na (meq/L): 142

COMPOUND: CCc1oc2ccccc2c1C(=O)c1cc(Br)c(O)c(Br)c1
Na (meq/L): 139.5

COMPOUND: CCC1(c2ccccc2)C(=O)NC(=O)NC1=O
Na (meq/L): 139.4

COMPOUND: OCCOCCN1CCN(C(c2ccccc2)c2ccc(Cl)cc2)CC1 (stereo unspecified) [HYDROXYZINE]
Na (meq/L): 143.2

COMPOUND: CC[C@H]1[C@@H]2C[C@H]3[C@@H]4N(C)c5ccccc5[C@]45C[C@@H]([C@@H]2[C@H]5O)N3[C@@H]1O
Na (meq/L): 140
